Values compiled from patent US9266867B2.

tested_system: UniProt P21453
Sequence (P21453 whole entry): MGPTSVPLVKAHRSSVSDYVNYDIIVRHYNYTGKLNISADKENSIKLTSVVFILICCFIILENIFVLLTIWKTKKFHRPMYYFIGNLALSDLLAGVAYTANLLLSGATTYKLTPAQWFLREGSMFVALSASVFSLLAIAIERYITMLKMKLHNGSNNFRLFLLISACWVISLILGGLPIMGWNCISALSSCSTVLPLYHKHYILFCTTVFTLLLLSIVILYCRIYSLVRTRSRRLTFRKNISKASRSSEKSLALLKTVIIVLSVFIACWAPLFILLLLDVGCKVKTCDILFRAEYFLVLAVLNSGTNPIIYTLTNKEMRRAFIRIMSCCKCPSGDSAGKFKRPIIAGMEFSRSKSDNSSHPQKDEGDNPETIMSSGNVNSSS
assay_method_text: 35S-GTPγS binding assay, EDG1 (S1P1)
Type: biochemical
Design: expressed in transfected cells
measurement_parameters: Table 1b; read-out: EDG1 EC50
measured_attribute: EC50

>>> assay_result("CC(C)Cc1ccc(-c2nc(-c3ccc(CN4CCC(Cc5ccccc5)(C(=O)O)CC4)cc3)no2)cc1Cl")
"< 10 nM"
>>> assay_result("CC(C)Cc1ccc(-c2nc(-c3ccc(CN4CCC(Cc5ccccn5)(C(=O)O)CC4)cc3)no2)cc1Cl")
"< 1 nM"
>>> assay_result("CC(C)Cc1ccc(-c2nc(-c3ccc(CN4CCC(C)(C(=O)O)CC4)cc3)no2)cc1")
"< 10 nM"
>>> assay_result("COc1ccccc1OCCC1(C(=O)O)CCN(Cc2ccc(-c3noc(-c4ccc(CC(C)C)c(Cl)c4)n3)cc2)CC1")
"< 1 nM"
>>> assay_result("CC(C)Cc1ccc(-c2nc(-c3ccc(CN4CCC(CO)(C(=O)O)CC4)cc3)no2)cc1Cl")
"< 1 nM"
>>> assay_result("CC(C)Cc1ccc(-c2nc(-c3ccc(CN4CCC(CCCN5CCCCC5)(C(=O)O)CC4)cc3)no2)cc1Cl")
"< 10 nM"

Continue with the compound presented below.
Record request: EC50 value, item `CC(C)Cc1ccc(-c2nc(-c3ccc(CN4CCC(CC5CC5)(C(=O)O)CC4)cc3)no2)cc1Cl`
< 1 nM
